Where do these numbers come from? They come from patent US9174998B2.

assay: Evaluation of metabolic stability; type: in vitro ADME, human; conditions: 0.2 mg/mL HLM, 0.1 μM test substance, 15 minutes at 37° C., with vs without NADPH production
Doc: threshold 50% (exclusive). Items with Test Example 2 residual ratio of the test substance beneath it return Met; others return Not met.

C=CCN1CC(=O)N2[C@@H](Cc3ccc(O)cc3F)C(=O)N(Cc3ccc(F)c(N4CC(N5CCN(C)CC5)C4)n3)C[C@@H]2N1C(=O)NCc1ccccc1 [Example 10]	Met
C=CCN1CC(=O)N2[C@@H](Cc3ccc(O)cc3)C(=O)N(Cc3ccc(F)c(N4CC(N5CCC(N(C)C)CC5)C4)n3)C[C@@H]2N1C(=O)NCc1ccccc1 [Reference Example 1]	Not met
C=CCN1CC(=O)N2[C@@H](Cc3ccc(O)cc3F)C(=O)N(Cc3cccc(N4CC(N5CCN(CC)[C@@H](C)C5)C4)n3)C[C@@H]2N1C(=O)NCc1ccccc1 [Example 20]	Met
C=CCN1CC(=O)N2[C@@H](Cc3ccc(O)cc3F)C(=O)N(Cc3cccc(N4CC(N5CCN(CC)[C@H](C)C5)C4)n3)C[C@@H]2N1C(=O)NCc1ccccc1 [Example 21]	Met
C=CCN1CC(=O)N2[C@@H](Cc3ccc(O)cc3)C(=O)N(Cc3cccc(N4CC(N5CCN(C)[C@@H](C)C5)C4)n3)C[C@@H]2N1C(=O)NCc1ccccc1 [Example 27]	Not met
C=CCN1CC(=O)N2[C@@H](Cc3ccc(O)cc3F)C(=O)N(Cc3cccc(N4CC(N(C)CCN5CCOCC5)C4)n3)C[C@@H]2N1C(=O)NCc1ccccc1 [Reference Example 5]	Met
C=CCN1CC(=O)N2[C@@H](Cc3ccc(O)cc3)C(=O)N(Cc3ccc(F)c(N4CC(N5CCN(C)[C@H](C)C5)C4)n3)C[C@@H]2N1C(=O)NCc1ccccc1 [Example 24]	Met
C=CCN1CC(=O)N2[C@@H](Cc3ccc(O)cc3F)C(=O)N(Cc3ccc(F)c(N4CC(N(C)CCN(C)C)C4)n3)C[C@@H]2N1C(=O)NCc1ccccc1 [Reference Example 6]	Met

Input C=CCN1CC(=O)N2[C@@H](Cc3ccc(O)cc3)C(=O)N(Cc3cccc(N4CC(N5CCN(C)C[C@@H]5C)C4)n3)C[C@@H]2N1C(=O)NCc1ccccc1 [Example 6] ; condition: Test Example 2 residual ratio of the test substance strictly below 50%. Does it hold?
Not met

Is Test Example 2 residual ratio of the test substance strictly under 50% for the entry C[C@H]1C2N(C(=O)CN(C)N2C(=O)NCc2ccccc2)[C@@H](Cc2ccc(O)cc2)C(=O)N1Cc1cccc2cccnc12 (stereo partly drawn) [Comparative Example 2, reference compound] ?
Met

###

assay: Evaluation of solubility (DMSO stock into PBS, HPLC-UV); type: physicochemical; details: aqueous buffer, kinetic from dmso stock; Dulbecco's phosphate-buffered saline pH 7, room temperature, about 15 minutes shaking; values greater than 200 μM regarded as 200 μM; read-out: Test Example 3 solubility
Measured metric: solubility (µM)
A number alone suffices; assume µM.

C=CCN1CC(=O)N2[C@@H](Cc3c(F)cc(O)cc3F)C(=O)N(Cc3cccc(N4CC(N5CCN(C(C)C)CC5)C4)n3)C[C@@H]2N1C(=O)NCc1ccccc1 [Example 12]	188
C=CCN1CC(=O)N2[C@@H](Cc3ccc(O)cc3F)C(=O)N(Cc3cccc(N4CC(N5CCN(CC)CC5)C4)n3)C[C@@H]2N1C(=O)NCc1ccccc1 [Example 1]	197
C=CCN1CC(=O)N2[C@@H](Cc3ccc(O)cc3F)C(=O)N(Cc3cccc(N4CC(N5CC[C@@H](N(C)C)C5)C4)n3)C[C@@H]2N1C(=O)NCc1ccccc1 [Reference Example 2]	195

Can you share its solubility? I mean this compound: C=CCN1CC(=O)N2[C@@H](Cc3c(F)cc(O)cc3F)C(=O)N(Cc3cccc(N4CC(N5CCN(CC)[C@H](C)C5)C4)n3)C[C@@H]2N1C(=O)NCc1ccccc1 [Example 23]
195

# solubility lookup, item C=CCN1CC(=O)N2[C@@H](Cc3ccc(O)cc3F)C(=O)N(Cc3ccc(F)c(N4CC(N5C[C@@H]6C[C@H]5CN6C(C)C)C4)n3)C[C@@H]2N1C(=O)NCc1ccccc1 [Reference Example 4]
198
